Tested on: HOP92
GI50: recorded values
OBSERVED_PROPERTY: GI50 (nM)

COMPOUND	UNIT_INFO	VALUE_MEASURED
COc1cc(C(=O)/C=C/c2cc(-c3cc(OC)c(OC)c(OC)c3)n[nH]2)cc(OC)c1OC [10e]	nM	860
COc1cc(-c2cc(/C=C/C(=O)c3ccc(Cl)c(Cl)c3)[nH]n2)cc(OC)c1OC [12e]	nM	2530
COc1ccc(C(=O)/C=C/c2cc(-c3ccc4c(c3)OCO4)n[nH]2)cc1OC	nM	2160
COc1ccc(C(=O)/C=C/c2cc(-c3cc(OC)c(OC)c(OC)c3)n[nH]2)cc1	nM	1060

###

Log10 TGI mean graph midpoint (MG_MID): recorded values
Tested on: human tumor cell lines
PROTOCOL_DETAILS: NCI SRB cytotoxicity, all fifty nine human tumor cell lines
Assay type: cell-based
Parameters: unit not given here
TEST_CONTEXT: against human tumor cell lines

COMPOUND	Log10 TGI mean graph midpoint (MG_MID)
COc1ccc(C(=O)/C=C/c2cc(-c3ccc4c(c3)OCO4)n[nH]2)cc1OC	−4.98
COc1cc(-c2cc(/C=C/C(=O)c3ccc(F)c(F)c3)[nH]n2)cc(OC)c1OC [13e]	−4.74
COc1ccc(C(=O)/C=C/c2cc(-c3cc(OC)c(OC)c(OC)c3)n[nH]2)cc1	−5.31
COc1cc(C(=O)/C=C/c2cc(-c3cc(OC)c(OC)c(OC)c3)n[nH]2)cc(OC)c1OC [10e]	−5.36
COc1cc(-c2cc(/C=C/C(=O)c3ccc4c(c3)OCO4)[nH]n2)cc(OC)c1OC [11e]	−4.77
COc1ccc(C(=O)/C=C/c2cc(-c3cc(OC)c(OC)c(OC)c3)n[nH]2)cc1OC	−5.47
COc1cc(-c2cc(/C=C/C(=O)c3ccc(Cl)c(Cl)c3)[nH]n2)cc(OC)c1OC [12e]	−4.35

###

Tested on: A498

COMPOUND	GI50
COc1ccc(C(=O)/C=C/c2cc(-c3cc(OC)c(OC)c(OC)c3)n[nH]2)cc1	1740 nM
COc1ccc(C(=O)/C=C/c2cc(-c3cc(OC)c(OC)c(OC)c3)n[nH]2)cc1OC	1480 nM
COc1cc(-c2cc(/C=C/C(=O)c3ccc(F)c(F)c3)[nH]n2)cc(OC)c1OC [13e]	2110 nM
COc1ccc(C(=O)/C=C/c2cc(-c3ccc4c(c3)OCO4)n[nH]2)cc1OC	1550 nM
COc1cc(C(=O)/C=C/c2cc(-c3cc(OC)c(OC)c(OC)c3)n[nH]2)cc(OC)c1OC [10e]	1610 nM
COc1cc(-c2cc(/C=C/C(=O)c3ccc4c(c3)OCO4)[nH]n2)cc(OC)c1OC [11e]	2760 nM
COc1cc(-c2cc(/C=C/C(=O)c3ccc(Cl)c(Cl)c3)[nH]n2)cc(OC)c1OC [12e]	5890 nM
